System: OVCAR-5 ovarian
PROCEDURE SUMMARY: NCI tumour cell line growth inhibition, 48 h
Task for the reader: assign each of the following compounds its reported TGI.

Given item O=C(Nc1ccn(CCO)c(=O)n1)c1ccccc1 , the value recorded as its TGI is > 100 µM

Entry C/C=C/C(CC(O)(C(F)(F)F)C(F)(F)F)=N/NC(N)=S — recorded TGI = > 10 µM

In plain terms, N#Cc1c(N)nc(N2CCOCC2)c(C#N)c1-c1ccncc1 has a documented TGI of > 100 µM

The value of TGI measured for the compound CC12C/C(=C\c3ccccc3)C(=O)C3C1CCCC32 turned out to be > 100 µM

Reported TGI of O=C(Nc1ccc2ncccc2c1)Nc1ccc2ncccc2c1 : > 100 µM

Reported TGI ( CC(C)CCC1CC2C(=O)N(c3ccccc3)C(=O)C2c2[nH]c3ccccc3c21 (configuration not stated) ) = 31.4 µM

// field: TGI; key: Cc1ccc(-n2cnc(C(=N)C#N)c2N)cc1 ; value = > 100 µM

Measured TGI of Cc1cn2c(=O)c3ncn(C4OC(CO)C(O)C4O)c3n(C)c2n1 (configuration not stated) : > 100 µM

Just so you know, measured TGI for COC(=O)C(C(=O)c1ccccc1)C(C(=O)C(=O)Nc1ccc(OC)cc1OC)C(=O)C(=O)c1ccc(C)cc1 (configuration not stated) came out at > 100 µM

For reference, reported TGI for COc1cc(C(=O)N2CCN(C=O)C2=S)cc(OC)c1OC stands at > 100 µM

TGI recorded for this compound, O=C1C2SC34c5c2c2ccccc2n5CCC3CCCN14 (configuration not stated) , is > 100 µM

# TGI of C[N+](C)(C)CC1CCCc2ccccc2C1=O (configuration not stated) = 28.8 µM

----------
Tested on: UACC-62 melanoma
PROCEDURE SUMMARY: NCI tumour cell line growth inhibition, 48 h
Could you please report measured TGI for the items listed next?
Just the number please, in µM, no unit attached.

Entry CC(C)C1=CC23CCC4C(C)(C(=O)O)CCCC4(C)C2CC1C1C(=O)N(c2ccc(Cc4ccc(N5C(=O)C6C7CC8C9(C)CCCC(C)(C(=O)O)C9CCC8(C=C7C(C)C)C6C5=O)cc4)cc2)C(=O)C13 (centres undefined) ; TGI = 29.7

The reported value for COc1cc(OCc2cccc(-c3ccc(C(O)c4nccs4)cc3)c2C)cc(OC)c1C=O (centres undefined) in terms of TGI is 1.92

Reported TGI of Cc1n(Cc2ccccc2)c2c([n+]1C)C(=O)c1ccccc1C2=O : 0.451

Value of TGI reported for the compound CC(C)Cc1ccc(C(C)C(=O)N2CCN(/C=C/c3ccccc3)CC2)cc1 (centres undefined) is 26.3

----------
Exercise: for every item that follows, state its recorded TGI.
System: MOLT-4 leukemia
PROCEDURE SUMMARY: NCI tumour cell line growth inhibition, 48 h

# TGI measured on MOLT-4 leukemia for item O=c1[nH]cnc2c1cnn2Cc1cn(CCCCO)nn1 = > 100 µM

Item COc1cc(OC)c2nc(C)c(CCCl)c(Cl)c2c1 ; assay system MOLT-4 leukemia; TGI reported as > 100 µM

Tested on MOLT-4 leukemia, the item CCn1c(-c2ccccc2)cs/c1=N\C(P(=O)(O)O)P(=O)(O)O showed TGI equal to > 100 µM

Field TGI (MOLT-4 leukemia), entry O=[N+]([O-])C[C@@]12O[C@]3(O)C4C5CC(C6C5C3C61)C42 (some centres undefined) : > 100 µM

Tested system MOLT-4 leukemia; TGI recorded for CC(=O)Nc1sc(Br)cc1S(=O)(=O)c1ccc(Cl)cc1 was > 100 µM

Query CCN1CCN(C(=O)[C@@]2(C)CC[C@]3(C)CC[C@]4(C)C(=CC(=O)[C@@H]5[C@@]6(C)CC[C@H](OC7C[C@@H](O)[C@@H](O)C(C)O7)C(C)(C)[C@@H]6CC[C@]54C)[C@@H]3C2)CC1 (some centres undefined) on MOLT-4 leukemia; TGI returned: 3 µM

For the compound CC1=C(C)CC2C(=O)N(c3cc(C(C)(C)C)ccc3C(C)(C)C)C(=O)C2C1 (centres undefined) , the measured TGI on MOLT-4 leukemia was > 100 µM

Param item: CC(C)N(C(=O)C12C3C4C1C1C4(C#N)C3C12C#N)C(C)C (centres undefined) ; param system: MOLT-4 leukemia; output TGI: > 100 µM

Tested on MOLT-4 leukemia: CCOC1(OCC)C2C=CC1C(COS(=O)(=O)c1ccc(C)cc1)C2COS(=O)(=O)c1ccc(C)cc1 (centres undefined) . Observed TGI: 99.3 µM

----------
System: MALME-3M melanoma
PROCEDURE SUMMARY: NCI tumour cell line growth inhibition, 48 h
MEASUREMENT LABEL: TGI

TGI reported for this compound CN=C(n1ccnc1)n1ccnc1 : > 100 µM

NC(N)=NCCN1CC2CCC(CC2)C1 has a reported TGI of > 100 µM

Measured TGI of O=C(Nc1ccccc1)c1cc(S(=O)(=O)NC2=NC(c3ccccc3)c3cc(Cl)ccc3N2)c(SSc2cc(Cl)c(C(=O)Nc3ccccc3)cc2S(=O)(=O)NC2=NC(c3ccccc3)c3cc(Cl)ccc3N2)cc1Cl (stereo not given) : > 100 µM

Query O=C(Nc1ccc(Nc2ccncc2)cc1)c1ccc([N+](=O)[O-])cc1 yields TGI of 17.3 µM

Notebook: CCOC(=O)c1ccc(NC(=O)Oc2ccc3c(C)cc(=O)oc3c2)cc1 , TGI read as > 100 µM

----------
For each entry below, report its TGI value.
Tested on: CCRF-CEM leukemia
PROCEDURE SUMMARY: NCI tumour cell line growth inhibition, 48 h

Reported TGI for CCO/C(O)=C(/C(=N)N1CCOCC1)C(=O)Nc1ccc(F)cc1 was > 100 µM

Entry NC(CCCCCP(=O)(c1ccccc1)C1C=CC=CC1)C(=O)O (stereo not given) — recorded TGI = > 100 µM

Kindly note the recorded TGI for OC(CC1SCCCS1)c1ccccc1 (stereo not given) , which is > 100 µM

Summary for this molecule, CCC12CCCN(Cc3ccccc3)C1c1c(n(C)c3ccccc13)CC2 (stereo not given) : TGI is > 253 µM

The value of TGI measured for the molecule Cc1ccc(S(=O)(=O)c2[nH]cc(/C(=C\C3CCCCC3)[N+](=O)[O-])c2C2CCCCC2)cc1 turned out to be 0.991 µM

----------
System: IGROV1 ovarian
PROCEDURE SUMMARY: NCI tumour cell line growth inhibition, 48 h
I'd be grateful if you could share measured TGI for these entries.

Measured TGI, COc1ccc(/C=C\[N+](=O)[O-])cc1OC : 4.46 µM

TGI reading for COc1cccc(C2CC(C)(O)Oc3cc4c(cc32)OCO4)c1O (stereo unspecified) : > 100 µM

Reported TGI of CC(C)C(CCl)NC(=O)c1cccc(C(=O)N[C@H](CCl)C(C)C)n1 (stereo in doubt) : > 100 µM

The compound listed as COc1cccc(F)c1C(=O)c1cnc(NC2CCN(S(C)(=O)=O)CC2)nc1N has a reported TGI of > 25 µM

// Cc1c(O)ccc2c(O)c(NC(=O)c3ccc4c(c3)CCC(C)(C)O4)c(=O)oc12 : TGI value = > 100 µM

// TGI lookup, compound = COc1ccc2occ(CCC(=O)O)c2c1 , result: > 100 µM

# TGI of CCCC(=O)NC(NC1CCCCC1)(C(=O)OCC)C(F)(F)F (stereo unspecified) = > 100 µM

Kindly note the recorded TGI for CN=C(n1ccnc1)n1ccnc1 , which is > 100 µM

// TGI value for CCn1c(-c2ccccc2)cs/c1=N\C(P(=O)(O)O)P(=O)(O)O : > 100 µM

# compound Cc1ccc(/C=N/Nc2cc(C)c3cccc(C)c3n2)s1 ; its TGI = 22.2 µM

Entry CC(C)(C)OC(=O)NC1CCCCC1NC(=O)C(=O)NC1CCCCC1NC(=O)OC(C)(C)C (stereo unspecified) , TGI reported as > 100 µM

----------
Test system: SNB-19 CNS
PROCEDURE SUMMARY: NCI tumour cell line growth inhibition, 48 h
I'd appreciate it if you could supply GI50 values for the items below.

The value of GI50 measured for the compound COc1ccc(Sc2[nH]c(C(C)=O)c3ccccc23)cc1 turned out to be 11.6 µM

Entry COc1ccc(/C=C\[N+](=O)[O-])cc1OC ; GI50 = 9.75 µM

Measured GI50, O=C(O)COc1ccc2c(=O)c3sc4c(=O)c5ccccc5c(=O)c4c3c(=O)c2c1 : 7.51 µM

GI50 for CCN1CCN(C(=O)[C@@]2(C)CC[C@]3(C)CC[C@]4(C)C(=CC(=O)[C@@H]5[C@@]6(C)CC[C@H](OC7C[C@@H](O)[C@@H](O)C(C)O7)C(C)(C)[C@@H]6CC[C@]54C)[C@@H]3C2)CC1 (some centres undefined) is 2.26 µM
